- target.entity: CIT1.8m (Klebsiella pneumoniae, UniProt P52687, R150A)
- Construct: CitA residues 6-130 inserted between CFP and Venus (pGW1, pRSET-based), His-tag purified
- Sequence (P52687 49-173 R150A): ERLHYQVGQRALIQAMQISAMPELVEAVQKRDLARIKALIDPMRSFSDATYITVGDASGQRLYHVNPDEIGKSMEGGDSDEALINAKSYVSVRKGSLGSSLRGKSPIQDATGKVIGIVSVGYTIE
- measurement.description: Citrate titration of purified FRET nanosensors in a fluorescence plate reader (excitation 433 nm, Venus/CFP emission ratio 530/488 nm) in 20 mM MOPS, 20 mM NaCl, pH 7, fitted to a single site binding curve.
- condition.context: n = 2
Structures can show the parent of a compound that is named as a salt.
attribute.measured: Kd
# number then unit; no other words

GET /values?readout=Kd&item= O=C(O)CC(O)(CC(=O)O)C(=O)O [citrate, citrate (citric acid)]
1.76 mM

----------
- target.entity: CIT0.5m (Klebsiella pneumoniae, UniProt P52687, K120A/R92A)
- Construct: CitA residues 6-130 inserted between CFP and Venus (pGW1, pRSET-based), His-tag purified
- Sequence (P52687 49-173 R92A/K120A): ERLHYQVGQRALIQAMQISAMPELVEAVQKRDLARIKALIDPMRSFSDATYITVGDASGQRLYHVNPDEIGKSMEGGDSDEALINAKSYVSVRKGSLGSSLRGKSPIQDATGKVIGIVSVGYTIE
- measurement.description: Citrate titration of purified FRET nanosensors in a fluorescence plate reader (excitation 433 nm, Venus/CFP emission ratio 530/488 nm) in 20 mM MOPS, 20 mM NaCl, pH 7, fitted to a single site binding curve.
- condition.context: n = 2
- Experimental: Next, we thoroughly tested the newly created nanosensor CFP-CitA6-130-Venus in vitro. We determined the binding properties by mixing the sensor with 0.5 to 1000 µM citrate. […] Thus, as has been previously observed when comparing nanosensors in vitro and in vivo [13], [23], we can expect the observed fluorescence intensity ratio in vivo to be lower than under assay conditions. […] All in vitro assays were performed in a TECAN Infinite 200 plate reader (TECAN, Austria) in 96 well format (modified from). […]
Counter-ions that a name gives are not always drawn.
attribute.measured: Kd (µM)
Answers are plain numbers, in µM.

GET /values?readout=Kd&item= O=C(O)CC(O)(CC(=O)O)C(=O)O [citrate, citrate (citric acid)]
470

----------
- target.entity: CIT50μ (Klebsiella pneumoniae, UniProt P52687, R92A)
- Construct: CitA residues 6-130 inserted between CFP and Venus (pGW1, pRSET-based), His-tag purified
- Sequence (P52687 49-173 R92A): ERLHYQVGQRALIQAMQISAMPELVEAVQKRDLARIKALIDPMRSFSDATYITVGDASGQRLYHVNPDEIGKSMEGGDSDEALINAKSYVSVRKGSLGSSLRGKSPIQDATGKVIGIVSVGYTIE
- measurement.description: Citrate titration of purified FRET nanosensors in a fluorescence plate reader (excitation 433 nm, Venus/CFP emission ratio 530/488 nm) in 20 mM MOPS, 20 mM NaCl, pH 7, fitted to a single site binding curve.
- condition.context: n = 2
Counter-ions that a name gives are not always drawn.
attribute.measured: Kd (µM)
One number for each entry, in µM.

GET /values?readout=Kd&item= O=C(O)CC(O)(CC(=O)O)C(=O)O [citrate, citrate (citric acid)]
50

----------
- target.entity: CIT8μ (CFP-CitA6-130-Venus) (Klebsiella pneumoniae, UniProt P52687)
- Construct: CitA residues 6-130 inserted between CFP and Venus (pGW1, pRSET-based), His-tag purified
- measurement.description: Citrate titration of purified FRET nanosensors in a fluorescence plate reader (excitation 433 nm, Venus/CFP emission ratio 530/488 nm) in 20 mM MOPS, 20 mM NaCl, pH 7, fitted to a single site binding curve.
- condition.context: n = 2
Counter-ions that a name gives are not always drawn.
attribute.measured: pKd
Give bare numbers, as −log10 of the molar value.

GET /values?readout=pKd&item= O=C(O)CC(O)(CC(=O)O)C(=O)O [citrate, citrate (citric acid)]
5.10

----------
- target.entity: CIT32μ (Klebsiella pneumoniae, UniProt P52687, K135A)
- Construct: CitA residues 6-130 inserted between CFP and Venus (pGW1, pRSET-based), His-tag purified
- measurement.description: Citrate titration of purified FRET nanosensors in a fluorescence plate reader (excitation 433 nm, Venus/CFP emission ratio 530/488 nm) in 20 mM MOPS, 20 mM NaCl, pH 7, fitted to a single site binding curve.
- condition.context: n = 2
Structures can show the parent of a compound that is named as a salt.
attribute.measured: Kd (µM)
Numbers only, in µM.

GET /values?readout=Kd&item= O=C(O)CC(O)(CC(=O)O)C(=O)O [citrate, citrate (citric acid)]
32
